# System: Enterococcus sp.
# EXPERIMENTAL_PROTOCOL: In vitro antibacterial evaluation: minimum inhibitory concentration (MIC), broth dilution method
# Type: cell-based
# CONDITION_NOTES: Enterococcus faecalis (GC 4552); 18 hours at 35° C.
Below is a list of entries, each paired with its recorded MIC Enterococcus faecalis (GC 4552) value.
Number only, in µg/mL; omit the unit.

COMPOUND: COc1ccc2cc(COC3C(CO)OC(OC4C(CO)OC(Oc5ccc(CC6NC(=O)C(C(C)c7ccccc7)NC(=O)CNC(=O)C(CO)NC(=O)C(CC7CNC(=N)N7C7OC(CO)C(O)C(O)C7O)NC(=O)C(CC7CNC(=N)N7)NC6=O)cc5)C(O)C4O)C(O)C3O)ccc2c1 (stereo not shown) [Example 245a]
MIC Enterococcus faecalis (GC 4552) [µg/mL]: 8
//
COMPOUND: CCCCCNC(=O)OCC1OC(OC2C(CO)OC(Oc3ccc(CC4NC(=O)C(C(C)c5ccccc5)NC(=O)CNC(=O)C(CO)NC(=O)C(C(O)C5CNC(=N)N5C5OC(CO)C(O)C(O)C5O)NC(=O)C(C(O)C5CNC(=N)N5)NC4=O)cc3)C(O)C2O)C(O)C(O)C1O (stereo not shown) [Example 251b]
MIC Enterococcus faecalis (GC 4552) [µg/mL]: 64

Query string: Could you tell me which MIC Enterococcus faecalis (GC 4552) is on file for CC(C)=CCN1CC(C(O)C2NC(=O)C(C(O)C3CNC(=N)N3)NC(=O)C(Cc3ccc(OC4OC(CO)C(OC5OC6COC7(OC6C(O)C5O)C5CC6CC(C5)CC7C6)C(O)C4O)cc3)NC(=O)C(C(C)c3ccccc3)NC(=O)CNC(=O)C(CO)NC2=O)N(C2OC(CO)C(O)C(O)C2O)C1=N (stereo not shown) [Example 225] ?
Result string: 8

Query string: Also, CC(c1ccccc1)C1NC(=O)CNC(=O)C(CO)NC(=O)C(CC2CNC(=N)N2C2OC(CO)C(O)C(O)C2O)NC(=O)C(CC2CNC(=N)N2)NC(=O)C(Cc2ccc(OC3OC(CO)C(OC4OC(COCc5ccc(OCc6ccccc6)cc5)C(O)C(O)C4O)C(O)C3O)cc2)NC1=O (stereo not shown) [Example 246] please.
Result string: 16

Query string: Also, CC(c1ccccc1)C1NC(=O)CNC(=O)C(CO)NC(=O)C(C(O)C2CNC(=N)N2C2OC(CO)C(O)C(O)C2O)NC(=O)C(C(O)C2CNC(=N)N2)NC(=O)C(Cc2ccc(OC3OC(CO)C(OC4OC5COC6(CCCCC6)OC5C(O)C4O)C(O)C3O)cc2)NC1=O (stereo not shown) [Example 203] please.
Result string: 8

Query string: Also, CC(c1ccccc1)C1NC(=O)CNC(=O)C(CO)NC(=O)C(C(O)C2CNC(=N)N2C2OC(CO)C(O)C(O)C2O)NC(=O)C(C(O)C2CNC(=N)N2)NC(=O)C(Cc2ccc(OC3OC(CO)C(OC4OC(CO)C(OCC=C(c5ccccc5)c5ccccc5)C(O)C4O)C(O)C3O)cc2)NC1=O (stereo not shown) [Example 241a] please.
Result string: 4

Query string: Also, CC(C)CC(=O)OC1C(O)C(CO)OC(OC2C(CO)OC(Oc3ccc(CC4NC(=O)C(C(C)c5ccc(Cl)cc5)NC(=O)CNC(=O)C(CO)NC(=O)C(C(O)C5CNC(=N)N5C5OC(CO)C(O)C(O)C5O)NC(=O)C(C(O)C5CNC(=N)N5)NC4=O)cc3)C(O)C2O)C1O (stereo not shown) [Example 262b] please.
Result string: 32

Query string: Also, COc1ccc2cc(COCC3OC(OC4C(CO)OC(Oc5ccc(CC6NC(=O)C(C(C)c7ccccc7)NC(=O)CNC(=O)C(CO)NC(=O)C(CC7CNC(=N)N7C7OC(CO)C(O)C(O)C7O)NC(=O)C(CC7CNC(=N)N7)NC6=O)cc5)C(O)C4O)C(O)C(O)C3O)ccc2c1 (stereo not shown) [Example 245] please.
Result string: 16

// data source = patent US8247211B2
